Assignment: determine reported TGI for the given compounds.
System: SK-OV-3 ovarian
method: NCI tumour cell line growth inhibition, 48 h

// query # query: TGI of entry O=C(SC1=NCCN1)c1cccc2ccccc12
// result > 100 µM

// query Find the recorded TGI belonging to O=C(c1ccccc1)C(c1ccccc1)C1(O)C(=O)Nc2ccc([N+](=O)[O-])cc21 (stereo not given) and report it.
// result 79.7 µM

// query Please give the measured TGI for this compound: COC(=O)C1=COC(OC2OC(CO)C(O)C(O)C2O)C2C3CN4CCc5c([nH]c6ccccc56)C4(CC12)O3 (stereo not given)
// result > 100 µM

// query I have this compound here, Cn1ccc(C(=O)NCCN(CCNC(=O)c2ccn(C)c(=O)c2O)CCNC(=O)c2ccn(C)c(=O)c2O)c(O)c1=O , and I need its recorded TGI.
// result > 100 µM

// query Bench note: what TGI did S=C(NCCNC(=S)[S][Sn]([c]1ccccc1)([c]1ccccc1)[c]1ccccc1)[S][Sn]([c]1ccccc1)([c]1ccccc1)[c]1ccccc1 show?
// result 0.0799 µM
